Tested on: NCI-H522 lung
Assay: NCI-60 one-dose screen, 48 h
Conditions: 10 µM unless noted
The panel holds about 83,000 compounds, 20% with a hit somewhere; the sample as a whole holds those more often. The source made the active and inactive calls. How the source made its calls: active means growth percent below 10; inactive means the rest.
Would you mind answering with one of these outcomes? true for active, false for inactive

Use the examples below as a reference point.
INSERT INTO measurements (compound, discrete_label) VALUES
  ('Cc1cc2cc3cc(C)c(N)cc3[n+](C)c2cc1N', 'true'),
  ('c1ccc(Cn2nc3c(c2-c2ccccc2)-c2oncc2CC3)cc1', 'false'),
  ('COc1cc2nc(-c3ccc(C(F)(F)F)cc3)cc(OCCN3CCC(O)CC3)c2cc1OC', 'false'),
  ('COc1cc(OC)cc(C2C3=C(COC3=O)Nc3cc(OC)ccc32)c1 (stereo unspecified)', 'true');

GET /call?item= N#Cc1ccc(-c2ccc3c(c2)NC(=O)/C3=C\c2ccc[nH]2)cc1 returns the recorded outcome of this test.
false

GET /call?item= COc1cccc(CCC(=O)c2cc3c(N)c(C(=O)Nc4cccc(Cl)c4C)sc3nc2C)c1 returns the recorded outcome of this test.
false

GET /call?item= CN(C)C(C(N)=O)c1ccc(Cl)cc1 (stereo unspecified) returns the recorded outcome of this test.
false

GET /call?item= Clc1nc(Nc2ccccc2)nc(Nc2ccccc2)n1 returns the recorded outcome of this test.
false
